Recorded measurements of glycan array binding signal (z-score), one per entry
Target: GlcNAc(b1-3)[GlcNAc(b1-4)][GlcNAc(b1-6)]GlcNAc
Assay: glycan array binding signal (z-score within array); higher = stronger binding
Settings: glycan notation: IUPAC condensed, linker removed
The full list was thinned out, with the strongest signals kept by preference.
Form rule: numeric answer, no unit written next to it.

Tachylectin-2 (Tachypleus tridentatus), TAL2_TACTR (protein) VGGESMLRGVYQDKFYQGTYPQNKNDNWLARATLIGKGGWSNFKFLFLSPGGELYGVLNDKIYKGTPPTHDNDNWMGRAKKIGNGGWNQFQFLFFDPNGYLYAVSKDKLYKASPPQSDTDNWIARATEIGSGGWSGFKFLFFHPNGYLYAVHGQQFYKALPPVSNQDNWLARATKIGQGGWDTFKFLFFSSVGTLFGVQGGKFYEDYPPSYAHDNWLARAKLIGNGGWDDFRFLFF: -0.413

Query binder follows.
In: Which glycan array binding signal (z-score) value belongs to Tim-4 (Mus musculus), Q6U7R4 (protein) MSKGLLLLWLVTELWWLYLTPAASEDTIIGFLGQPVTLPCHYLSWSQSRNSMCWGKGSCPNSKCNAELLRTDGTRIISRKSTKYTLLGKVQFGEVSLTISNTNRGDSGVYCCRIEVPGWFNDVKKNVRLELRRATTTKKPTTTTRPTTTPYVTTTTPELLPTTVMTTSVLPTTTPPQTLATTAFSTAVTTCPSTTPGSFSQETTKGSAFTTESETLPASNHSQRSMMTISTDIAVLRPTGSNPGILPSTSQLTTQKTTLTTSESLQKTTKSHQINSRQTILIIACCVGFVLMVLLFLAFLLRGKVTGANCLQRHKRPDNTEDSDSVLNDMSHGRDDEDGIFTL ?
Out: 1.75
